Hey, just so you know, these numbers are from paper PMC6678253.

assay: Metabolic stability in human liver microsomes (HLMs); conditions: HLMs 1 mg/mL, 50 µM compound; Clint ≤ 8.6 = low clearance
Measured Clint of individual entries
Number first, unit second.

Before answering, review these 3 worked examples.
# MOL SMILES, Clint
rows = [
    ("Cc1ccc(C(C)C)c(OCc2nc(N)nc(N3CCN(C)CC3)n2)c1", "6.30 mL/min/kg"),
    ("CN1CCN(c2nc(N)nc(Cc3cccc(Cl)c3)n2)CC1", "7.56 mL/min/kg"),
    ("CN1CCN(c2nc(N)nc(Cc3c[nH]c4ccccc34)n2)CC1", "2.34 mL/min/kg"),
]

Please turn your attention to the following entry.
// returns reported Clint for input Cc1cccc(Cc2nc(N)nc(N3CCN(C)CC3)n2)c1
3.96 mL/min/kg
